# Measurement Description: NCI Yeast Anticancer Drug Screen. Data for the bub3 strain (AID 167)
# Particulars: S. cerevisiae bub3 mutant strain, at 50.0 µM, hits give high values
# Protocol: Growth inhibition of yeast strains with defined genetic alterations is measured as a screen for potential anti-cancer activity. Selected strains with alterations in DNA damage repair or cell cycle control were exposed to compounds and growth inhibition was measured relative to vehicle treated controls. The strain used in this assay is bub3
Compounds without any hit were thinned out: in the full panel of roughly 79,000, 15% have a hit.
Readout Label: growth inhibition (%)
// units = %; emit number, no label

Recorded growth inhibition, per entry:
Compound: CC1(C)OCC(C(O)C2OC(C)(C)OC2/C=N\O)O1 (centres undefined)
growth inhibition (%): -1.45
//
Compound: CC(C)CCNc1ncnc2[nH]ncc12
growth inhibition (%): -13.8
//
Compound: CCN(CC)CC(=O)Nc1c(C(N)=O)nnn1Cc1cc(Cl)c(C(=O)c2ccc(Cl)cc2)c(Cl)c1
growth inhibition (%): 15.9
//
Compound: O=C1C=Cc2ccccc2/C1=C/c1nc(-c2ccc(Cl)cc2)oc1O
growth inhibition (%): 6.9
//
Compound: CCOC(=O)c1ccc(N=Cc2ccc(N(CCC#N)S(=O)(=O)c3ccccc3)cc2C)cc1
growth inhibition (%): 2.95

Reported growth inhibition, compound O=C(/C=C/c1ccccc1)Nc1ccc([N+](=O)[O-])cc1Cl : ____ 26.2

Reported growth inhibition, compound CCCCCCCC[N+](C)([O-])CCCCCC[N+](C)([O-])CCCCCCCC (centres undefined) : ____ 5.85

Reported growth inhibition, compound Clc1ccc(C(=C(c2ccc(Cl)cc2)c2ccc(Cl)cc2)c2ccc(Cl)cc2)cc1 : ____ 10.4

Reported growth inhibition, compound O=C(Nc1cccc(O)c1)c1ccc([N+](=O)[O-])cc1 : ____ 19.7

Reported growth inhibition, compound O=C(O)c1c(Br)c(Br)c(Br)c(Br)c1C(=O)Nc1ccc(Cl)c(Cl)c1 : ____ 0

====

# Measurement Description: NCI Yeast Anticancer Drug Screen. Data for the mlh1 rad18 strain (AID 175)
# Particulars: S. cerevisiae mlh1 rad18 strain growth inhibition; at 50.0 µM
This is part of a sample that, as a whole, favours compounds with a hit. Of some 79,000 tested, about 15% had one in any assay. Active and inactive are the calls of the source. Cut-off read from the data, not from the text of the source: active = growth inhibition above about 70%; inactive = the rest.
Lab note: assign the record to one of active, inactive

# outcome recorded in this test, key = COC[C@H]1C(=O)NCC(=O)N2N=CCC[C@H]2C(=O)N(O)[C@H](C)C(=O)O[C@@H](C(C)C)[C@H](NC(=O)[C@@](C)(O)[C@]2(O)CC[C@@H](CC(C)C)[C@H](C)O2)C(=O)N2NCCC[C@@H]2C(=O)N1O active

# outcome recorded in this test, key = CCCCCC1CCC(O)CC1 (configuration not stated) inactive

# outcome recorded in this test, key = CCOc1c(N=Nc2ccc(Cl)cc2Cl)c(C)nn1C(N)=S inactive

====

# Measurement Description: NCI Yeast Anticancer Drug Screen. Data for the mec2-1 strain (AID 157)
# Particulars: S. cerevisiae mec2-1 strain, at 50.0 µM, hits give high values
This is part of a sample that, as a whole, favours compounds with a hit. Of some 79,000 tested, about 15% had one in any assay.
Readout Label: growth inhibition (%)
// units = %; emit number, no label

Recorded growth inhibition, per entry:
Compound: O=C(c1cccc(Cl)c1)c1cccc2ccccc12
Measured: 5.6
--
Compound: Clc1cccc(Cl)c1/C=N/N1CCN(/N=C/c2c(Cl)cccc2Cl)CC1
Measured: 10.1
--
Compound: CC1N(/N=C/c2ccccc2)C(c2ccccc2)C(c2ccccc2)N1/N=C/c1ccccc1 (configuration not stated)
Measured: 15
--
Compound: O=[N+]([O-])/C(C(Cl)=C(Cl)Cl)=C(/Cl)Sc1ccccc1
Measured: 92.1
--
Compound: COc1cc(C#N)cc(OC)c1
Measured: -16.4

Turning now to a further record.
Reported growth inhibition, compound O=C(N/N=C\c1cccnc1)Nc1ccc(N=Nc2ccccc2)cc1 : ____ 12.5

====

# Measurement Description: NCI Yeast Anticancer Drug Screen. Data for the bub3 strain (AID 167)
# Particulars: S. cerevisiae bub3 mutant strain, at 50.0 µM, hits give high values
The panel holds about 79,000 compounds, 15% with a hit somewhere; the sample as a whole holds those more often.
Readout Label: growth inhibition (%)
// units = %; emit number, no label

Recorded growth inhibition, per entry:
Compound: CCOc1cc2c(cc1C(C)c1ccc(OCc3ccccc3)c(OC)c1)OCO2 (stereo unspecified)
growth inhibition (%): -2.05
//
Compound: O=S(=O)(Oc1cccc2ccccc12)c1ccccc1
growth inhibition (%): 0.95
//
Compound: O=C(O)C1CC1(C(=O)O)C(=O)O (stereo unspecified)
growth inhibition (%): -0.05

Reported growth inhibition, compound O=C(CC(=O)C(F)(F)F)c1ccc2c(c1)Cc1ccccc1-2 : ____ -2.7

Reported growth inhibition, compound O=C1C=C(Nc2ccc(S(=O)(=O)Nc3ncccn3)cc2)c2ccccc2C1=O : ____ 18.9

Reported growth inhibition, compound CC(C)COC(=O)c1ccc(NC(=O)CN2CC(C)OC(C)C2)cc1 (stereo unspecified) : ____ 7.95

Reported growth inhibition, compound ONc1ncnc2nc[nH]c12 : ____ -2.45

====

# key: entry, value: growth inhibition
# Measurement Description: NCI Yeast Anticancer Drug Screen. Data for the mec2-1 strain (AID 157)
# Particulars: S. cerevisiae mec2-1 strain, at 50.0 µM, hits give high values
This is part of a sample that, as a whole, favours compounds with a hit. Of some 79,000 tested, about 15% had one in any assay.
// units = %; emit number, no label

Compound: Cc1cccc(C(C#N)c2ccc(N)cc2)c1 (centres undefined)
growth inhibition / %: -61
//
Compound: Cc1cc([N+](=O)[O-])ccc1NC(=O)c1c(Cl)c(Cl)c(C(=O)Nc2ccc([N+](=O)[O-])cc2C)c(Cl)c1Cl
growth inhibition / %: 28.1
//
Compound: COC(=O)C1=NC(=O)C(C#N)=C(C(=O)OC)C1(C(=O)c1ccc(OC)cc1)c1ccc(OC)cc1 (centres undefined)
growth inhibition / %: 3.7
//
Compound: CCCCOC(=O)CCCCCCC/C=C/C1C=CC(CCCC)C(C#N)C1C#N (centres undefined)
growth inhibition / %: -5.95
//
Compound: NC(=O)CN1CC(C2=C(O)CN(CC(N)=O)C2=O)=CC1=O
growth inhibition / %: -8.6
//
Compound: COC(=O)c1cc(C)cc(N(c2ccccc2[N+](=O)[O-])S(=O)(=O)c2ccc(C)cc2)c1C
growth inhibition / %: -9.35
//
Compound: COP(=O)(OC)C1c2cc(Cl)ccc2-c2c(Cl)cc(Cl)cc21 (centres undefined)
growth inhibition / %: 67.9
//
Compound: COc1ccc2nc(NC(=O)Nc3ccc(Cc4ccc(NC(=O)Nc5nc6ccc(OC)cc6s5)cc4)cc3)sc2c1
growth inhibition / %: -19.6
//
Compound: COc1ccc(C(=O)Nc2ccccc2C#N)cc1
growth inhibition / %: -4.5
//
Compound: NC(=O)C(C1=CCCCC1)c1ccccc1 (centres undefined)
growth inhibition / %: -1.3

Reported growth inhibition, compound O=C1CCCc2cc3c(cc21)CC1(C3)Cc2cc3c(cc2C1)C(=O)CCC3 : ____ -7.25

Reported growth inhibition, compound C[N+](C)(C)CC(=O)c1ccc[nH]1 : ____ -11.2

Reported growth inhibition, compound CN(C)c1ccc(N=C2C=CC(=C(C#N)C#N)c3ccccc32)cc1 : ____ -6.05

Reported growth inhibition, compound CN(/N=C\c1ccc2ccccc2c1)C1=NCCN1 : ____ 0.25

Reported growth inhibition, compound CC1=CC(CO)C2C(=O)NC(=O)C2C1C (centres undefined) : ____ -6.15

Reported growth inhibition, compound C=CCCCCCCCCC(=O)NCCCN1CCOCC1 : ____ 76.1

Reported growth inhibition, compound CC(CS(C)(=O)=O)S(=O)(=O)O (centres undefined) : ____ -20.4

Reported growth inhibition, compound O=C(O)CCNCCCCNCCC(=O)O : ____ -11.8

Reported growth inhibition, compound CN1CCC(=C2c3ccccc3CC(O)c3sccc32)CC1 (centres undefined) : ____ 5.7

Reported growth inhibition, compound O=S1Nc2ccccc2[C@H]2[C@@H]1[C@H]1O[C@@H]2c2ccccc21 (some centres undefined) : ____ -5.65

Reported growth inhibition, compound CCOC(=O)C(CCCCS(=O)(=O)O)C(=O)OCC : ____ -9.35

Reported growth inhibition, compound O=C(NO)c1ccccc1O : ____ 21

Reported growth inhibition, compound CCCCCOC(=O)c1c(Cl)c(Cl)c(C(=O)OCCCCC)c(Cl)c1Cl : ____ -39

Reported growth inhibition, compound ONc1cnc2ccccc2n1 : ____ -30.4

====

# Measurement Description: NCI Yeast Anticancer Drug Screen. Data for the rad50 strain (AID 155);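 also: 0% = growth of vehicle-only cultures of the same strain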
# Particulars: S. cerevisiae rad50 strain growth inhibition; at 50.0 µM
# Experimental: Growth inhibition of yeast strains with defined genetic alterations is measured as a screen for potential anti-cancer activity. Selected strains with alterations in DNA damage repair or cell cycle control were exposed to compounds and growth inhibition was measured relative to vehicle treated controls. The strain used in this assay is rad50
The panel holds about 79,000 compounds, 15% with a hit somewhere; the sample as a whole holds those more often. Calls of active or inactive are those of the source. No stated cut-off is given here; in the data, active means growth inhibition above about 70%; inactive means the rest.
Lab note: assign the record to one of active, inactive

Molecule: COc1ccc2ccccc2c1CN1CCOCCOCCN(Cc2c(OC)ccc3ccccc23)CCOCCOCC1
Class: inactive

Molecule: COc1nc(NC2OC(CO)C(O)C(O)C2O)c(Br)c(=O)n1C (stereo unspecified)
Class: inactive

Molecule: CC(=O)c1c(C)cc(C)nc1C
Class: inactive

Molecule: O=C1c2ccccc2C(=O)N1Cc1ccccc1-c1c2nc(c(-c3ccccc3CN3C(=O)c4ccccc4C3=O)c3ccc([nH]3)c(-c3ccccc3CN3C(=O)c4ccccc4C3=O)c3nc(c(-c4ccccc4CN4C(=O)c5ccccc5C4=O)c4ccc1[nH]4)C=C3)C=C2
Class: inactive

# outcome recorded in this test, key = CC(C)CNc1ncnc2c1cnn2C inactive

# outcome recorded in this test, key = CCOC(=O)C(NC(=O)/C=C\C(=O)O)C(C)C (stereo unspecified) inactive

# outcome recorded in this test, key = COc1ccc(C2=CC(=O)C(C)(C#N)CC2)cc1 (stereo unspecified) inactive

# outcome recorded in this test, key = CN/N=C(/c1nc2ccc([N+](=O)[O-])cc2[nH]c1=O)C(O)c1ccc(C(O)/C(=N\NC)c2nc3ccc([N+](=O)[O-])cc3[nH]c2=O)cc1 (stereo unspecified) inactive

# outcome recorded in this test, key = CC(=O)Nc1ccc(S(=O)(=O)Nc2c(N)[nH]c(=S)[nH]c2=O)cc1 inactive

# outcome recorded in this test, key = NC(N)=Nc1nc2ccccc2[nH]1 inactive

# outcome recorded in this test, key = O=C(Nc1nc2ccc([N+](=O)[O-])cc2s1)C(=O)C(C(=O)c1ccncc1)C1OC(=O)c2ccccc21 (stereo unspecified) inactive

Origin of values: PubChem BioAssay (NCI)
